Cited source: patent US20250388702A1

Biological target: T1, Human KIR3DL3 (human, UniProt Q8N743 26-410)
T1 construct: also called Killer cell immunoglobulin-like receptor 3DL3
T1 sequence (Q8N743 26-410 H321N limits assumed): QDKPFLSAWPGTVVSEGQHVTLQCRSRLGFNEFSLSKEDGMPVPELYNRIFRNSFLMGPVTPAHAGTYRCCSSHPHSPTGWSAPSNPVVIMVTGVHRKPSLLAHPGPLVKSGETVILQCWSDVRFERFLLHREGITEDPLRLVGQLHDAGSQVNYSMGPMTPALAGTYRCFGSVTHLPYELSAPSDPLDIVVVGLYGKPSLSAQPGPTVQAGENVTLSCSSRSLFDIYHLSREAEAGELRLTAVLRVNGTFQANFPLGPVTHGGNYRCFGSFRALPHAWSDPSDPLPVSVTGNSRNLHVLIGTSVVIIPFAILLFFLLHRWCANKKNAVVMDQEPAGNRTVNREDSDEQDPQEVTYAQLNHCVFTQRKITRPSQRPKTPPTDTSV
Assay: flow cytometry; blockade of HHLA2-mIgG2a binding to KIR3DL3-transfected 300.19 cells

binder | IC50
KIR3DL3 mAb 574.2.8F7.1.7.4 (antibody, IgG1, V domains shown, Mouse hybridoma antibody, IgG1; only variable domains given; also called AVS-3700) VH: DVKLVESGGGLVKPGGSLKLSCAASGFTFSSYCMSWVRQTPEKRLEWVATISSGGNYIYYPDSVKGRFTISRDIAKNTLYLQMSSLKSEDTAMYYCTRGGYDERYFDYWGQGTILTVSS VL: DIQMTQSPASLSASVGETVTITCRASENIYSYLAWYQQKQGKSPQLLVYNAKTLTEGMPSRFSGSGSGTQFSLRINSLQPEDFGSYYCQHHHGTPRTFGGGTKLEIK | 27.5 µg/mL
